Origin of values: patent EP1202975B1

- target-entity: TF-VIIa (Homo sapiens)
- Construct: 2nM recombinant human factor VIIa; purchased American Diagnostica, Greenwich CT; host or cells: soluble TF made in house in E. coli
- Sequence (P08709 213-466 limits assumed): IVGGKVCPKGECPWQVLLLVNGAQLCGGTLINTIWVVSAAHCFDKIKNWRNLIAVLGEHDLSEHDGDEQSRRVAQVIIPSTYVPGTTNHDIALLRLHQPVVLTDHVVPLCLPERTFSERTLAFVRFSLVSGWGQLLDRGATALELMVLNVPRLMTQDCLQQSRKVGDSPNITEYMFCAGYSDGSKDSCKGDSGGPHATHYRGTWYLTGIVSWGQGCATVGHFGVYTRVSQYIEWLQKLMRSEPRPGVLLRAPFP
- Sequence (P08709 61-212 limits assumed): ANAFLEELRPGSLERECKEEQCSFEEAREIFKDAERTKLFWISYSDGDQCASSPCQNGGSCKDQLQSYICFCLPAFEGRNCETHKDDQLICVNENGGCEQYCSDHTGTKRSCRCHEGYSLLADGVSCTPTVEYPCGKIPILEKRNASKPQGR
- Sequence (P13726 33-251 partner limits assumed): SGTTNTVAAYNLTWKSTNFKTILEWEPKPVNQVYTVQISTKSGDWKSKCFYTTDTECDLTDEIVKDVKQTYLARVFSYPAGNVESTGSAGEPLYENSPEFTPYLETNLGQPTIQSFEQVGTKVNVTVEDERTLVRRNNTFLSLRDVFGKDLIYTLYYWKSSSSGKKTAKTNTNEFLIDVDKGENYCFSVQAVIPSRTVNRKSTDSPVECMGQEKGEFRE
- experiment-notes: TF-VIIa Assay
- Type: biochemical
- condition-notes: read-out: IC50 or % Inhibition TF-VIIa (30 µM); cells given as a plain number (IC50)
# label = true (1) if IC50 < 7 µM else false (0)

# count of solved cases: 5
compound: COc1cccc(CCNc2nc(Cl)c(-c3ccccc3)n(CC(=O)NCc3ccc(C(=N)N)cc3)c2=O)c1 [1507-12]
category: true (1)
--
compound: N=C(N)c1ccc(CNC(=O)Cn2c(-c3ccccc3)c(Cl)nc(NCc3cccc(F)c3)c2=O)cc1 [1507-42]
category: false (0)
--
compound: Cc1c(Cl)nc(NCc2ccccc2)c(=O)n1CC(=O)NCc1ccc(C(=N)N)cc1 [1471-1]
category: false (0)
--
compound: N=C(N)c1ccc(CNC(=O)Cn2c(-c3ccccc3)c(Cl)nc(NCc3cc(F)c(F)c(F)c3)c2=O)cc1 [1512-32]
category: false (0)
--
compound: N=C(N)c1ccc(CNC(=O)Cn2c(-c3cccc(Cl)c3)c(Cl)nc(NCCc3ccncc3)c2=O)cc1 [1471-29]
category: true (1)

Just wondering, is IC50 of N=C(N)c1ccc(CNC(=O)Cn2c(-c3ccccc3)c(Cl)nc(NCC(c3ccccc3)c3ccccc3)c2=O)cc1 [1507-09] below 7 µM?
false (0)

# check: IC50 < 7 µM for N=C(N)c1ccc(CNC(=O)Cn2c(-c3ccccc3)c(Cl)nc(NCc3cc(Cl)ccc3Cl)c2=O)cc1 [1512-35]
false (0)

Check if IC50 falls below 7 µM for C[C@@H](C(=O)NCc1ccc(C(=N)N)cc1)n1c(-c2ccccc2)c(Cl)nc(NCc2ccccc2)c1=O [1517-03] .
false (0)
